Answer each item with its documented melting temperature.
- Test system: HeLa Kyoto
- test description: melting temperature (median over replicates), in situ; higher = more thermally stable
- condition details: cell cycle stage: mitosis
Field: numeric (°C). Do not append units.

Hello, please tell me recorded melting temperature for this one: MLSSTAMYSAPGRDLGMEPHRAAGPLQLRFSPYVFNGGTILAIAGEDFAIVASDTRLSEGFSIHTRDSPKCYKLTDKTVIGCSGFHGDCLTLTKIIEARLKMYKHSNNKAMTTGAIAAMLSTILYSRRFFPYYVYNIIGGLDEEGKGAVYSFDPVGSYQRDSFKAGGSASAMLQPLLDNQVGFKNMQNVEHVPLSLDRAMRLVKDVFISAAERDVYTGDALRICIVTKEGIREETVSLRKD [PSMB1] 60.1

Given the sequence MVQAWYMDDAPGDPRQPHRPDPGRPVGLEQLRRLGVLYWKLDADKYENDPELEKIRRERNYSWMDIITICKDKLPNYEEKIKMFYEEHLHLDDEIRYILDGSGYFDVRDKEDQWIRIFMEKGDMVTLPAGIYHRFTVDEKNYTKAMRLFVGEPVWTAYNRPADHFEARGQYVKFLAQTA [ADI1] , write its reported melting temperature. 51.1

Give the reported melting temperature for this sequence. MDLLQFLAFLFVLLLSGMGATGTLRTSLDPSLEIYKKMFEVKRREQLLALKNLAQLNDIHQQYKILDVMLKGLFKVLEDSRTVLTAADVLPDGPFPQDEKLKDAFSHVVENTAFFGDVVLRFPRIVHYYFDHNSNWNLLIRWGISFCNQTGVFNQGPHSPILSLMAQELGISEKDSNFQNPFKIDRTEFIPSTDPFQKALREEEKRRKKEEKRKEIRKGPRISRSQSEL [CCDC134] 53.3

Supply measured melting temperature of MTKIKADPDGPEAQAEACSGERTYQELLVNQNPIAQPLASRRLTRKLYKCIKKAVKQKQIRRGVKEVQKFVNKGEKGIMVLAGDTLPIEVYCHLPVMCEDRNLPYVYIPSKTDLGAAAGSKRPTCVIMVKPHEEYQEAYDECLEEVQSLPLPL [NHP2] in your reply. 54.1

Supply measured melting temperature of MGLELFLDLVSQPSRAVYIFAKKNGIPLELRTVDLVKGQHKSKEFLQINSLGKLPTLKDGDFILTESSAILIYLSCKYQTPDHWYPSDLQARARVHEYLGWHADCIRGTFGIPLWVQVLGPLIGVQVPEEKVERNRTAMDQALQWLEDKFLGDRPFLAGQQVTLADLMALEELMQPVALGYELFEGRPRLAAWRGRVEAFLGAELCQEAHSIILSILEQAAKKTLPTPSPEAYQAMLLRIARIP [GSTT2B] in your reply. 55.1

---

Record form. Attribute: solubility change mitosis (log2). Fill in for each entry.
- System: HeLa Kyoto
- test description: solubility change mitosis vs G1/S (difference of NP-40 vs SDS log2 ratios) (log2 ratio difference); higher = more soluble in mitosis
Reply: number alone, nothing else.

Return solubility change mitosis (log2) (reported value) for this sequence: MPGSAAKGSELSERIESFVETLKRGGGPRSSEEMARETLGLLRQIITDHRWSNAGELMELIRREGRRMTAAQPSETTVGNMVRRVLKIIREEYGRLHGRSDESDQQESLHKLLTSGGLNEDFSFHYAQLQSNIIEAINELLVELEGTMENIAAQALEHIHSNEVIMTIGFSRTVEAFLKEAARKRKFHVIVAECAPFCQGHEMAVNLSKAGIETTVMTDAAIFAVMSRVNKVIIGTKTILANGALRAVTGTHTLALAAKHHSTPLIVCAPMFKLSPQFPNEEDSFHKFVAPEEVLPFTEGDILEKVSVHCPVFDYVPPELITLFISNIGGNAPSYIYRLMSELYHPDDHVL [EIF2B2] -0.191

Tell me its solubility change mitosis (log2) given MADAASQVLLGSGLTILSQPLMYVKVLIQVGYEPLPPTIGRNIFGRQVCQLPGLFSYAQHIASIDGRRGLFTGLTPRLCSGVLGTVVHGKVLQHYQESDKGEELGPGNVQKEVSSSFDHVIKETTREMIARSAATLITHPFHVITLRSMVQFIGRESKYCGLCDSIITIYREEGILGFFAGLVPRLLGDILSLWLCNSLAYLVNTYALDSGVSTMNEMKSYSQAVTGFFASMLTYPFVLVSNLMAVNNCGLAGGCPPYSPIYTSWIDCWCMLQKEGNMSRGNSLFFRKVPFGKTYCCDLKMLI [MTCH2] as the entry. -0.018

Query solubility change mitosis (log2) for MFHGIPATPGIGAPGNKPELYEEVKLYKNAREREKYDNMAELFAVVKTMQALEKAYIKDCVSPSEYTAACSRLLVQYKAAFRQVQGSEISSIDEFCRKFRLDCPLAMERIKEDRPITIKDDKGNLNRCIADVVSLFITVMDKLRLEIRAMDEIQPDLRELMETMHRMSHLPPDFEGRQTVSQWLQTLSGMSASDELDDSQVRQMLFDLESAYNAFNRFLHA [VPS28] 0.014
